- test system: Follistatin (Homo sapiens)
- experiment summary: follistatin binders on small-molecule microarrays, primary screen, biochemical, small-molecule microarray, 635/667 nm fluorescence (AID 1132)
- condition context: FST binding, 635 nm fluorescence, higher = more signal
Mark false for composite z-score values under 0.5, and true for everything at or above.

{"molecule": "CC(CCN1CCCCc2nc(C)c(C)cc21)=NOC(C)CN1CCCCc2nc(C)c(C)cc21 (stereo unspecified)", "class name": "true"}
{"molecule": "CCN1C(=O)[C@H]2[C@H]3[C@H](O)[C@H](O)CC(=NO[C@@H]4O[C@H](CO)[C@@H](O)[C@H](O)[C@H]4O)[C@@H]3CC[C@H]2C1=O", "class name": "false"}
{"molecule": "CC(C)(C)N1CC=CC23O[C@@H]4C=CCCOC(=O)C4[C@H]2C(=O)N(CCCCCO)[C@@H]3C1=O (stereo partly specified)", "class name": "false"}
{"molecule": "CC(=O)OC[C@H]1O[C@H](C#CCCCc2ccccc2)C=C[C@@H]1OC(C)=O", "class name": "false"}
{"molecule": "CC[C@@H](c1ccccc1)n1c(=O)n2n(c1=O)[C@H]1[C@H](O)[C@@H]3O[C@@H]3C(=NOCC(C)C)[C@H]1CC2", "class name": "false"}
{"molecule": "C=C(/C(=C/C[C@H](OC(=O)c1ccncc1)c1ccc(OCCO)cc1)c1cnc2ccccc2c1)C(C)C", "class name": "true"}
{"molecule": "CC(CCN1CCc2nc(-c3ccccc3)c(-c3ccccc3)cc2C1)=NO[C@H](C)c1cn([C@@H]2COC[C@H]2O)nn1", "class name": "false"}
{"molecule": "CCCCCN1CC=CC23O[C@@H]4C=CCOC(=O)[C@@H]4[C@H]2C(=O)N(CCCCCCO)[C@@H]3C1=O (stereo partly specified)", "class name": "false"}
{"molecule": "CC(=O)C[C@H](O)[C@@H](NC(=O)OC(C)(C)C)C(C)C", "class name": "false"}
{"molecule": "COc1cccc([C@@H]2Oc3ccc(Br)cc3C(=O)[C@H]2O)c1", "class name": "false"}
{"molecule": "CCN1C(=O)[C@H]2[C@H]3[C@H](O)C=CC(=O)[C@@H]3CC[C@H]2C1=O", "class name": "false"}
{"molecule": "O=C1C[C@]2(c3ccc([N+](=O)[O-])cc3)C(=O)N(CCN3CCOCC3)c3cc(CO)ccc3[C@H]2N1CC12CC3CC(CC(C3)C1)C2", "class name": "false"}
{"molecule": "CC(C)(C)N1C(=O)[C@H]2[C@H]3[C@H](O)[C@H](O)CC(=NO[C@@H]4O[C@H](CO)[C@@H](O)[C@H](O)[C@H]4O)[C@@H]3CC[C@H]2C1=O", "class name": "true"}
{"molecule": "COCCOC(=O)N1C(=O)[C@@]2(c3cc(C#CC4(O)CCCCCC4)ccc31)[C@H](C(=O)N1CCN(c3ncccn3)CC1)[C@H]1C(=O)O[C@H](c3ccccc3)[C@H](c3ccccc3)N1[C@@H]2c1ccc(OCCO)cc1", "class name": "true"}
{"molecule": "COC(=O)[C@@H]1CCCN1C(=O)[C@@H](C)CO", "class name": "false"}
{"molecule": "COC(=O)C1(C)C=C2C(=C(c3ccccc3)C(=O)C2C)CN1 (stereo unspecified)", "class name": "false"}
{"molecule": "CO[C@H]1COC(=O)[C@@H]2CCCN2C(=O)[C@@H](C)COC(=O)CC=C[C@@H]1C", "class name": "true"}
{"molecule": "CCCNC(=O)OC[C@H]1O[C@H](CCON=C[C@@H](OC)[C@H](C)C=CCC(=O)OC)C=C[C@@H]1Oc1ccc(OC)cc1", "class name": "false"}
{"molecule": "CC(=O)OC[C@H]1O[C@H](CCON=C[C@@H](C)[C@H](OCc2ccccc2)C(C)C)C=C[C@@H]1OC(C)=O", "class name": "false"}
{"molecule": "CO[C@H]([C@@H](C)[C@H](OC)c1ccccc1)[C@H](C)[C@@H](OC)[C@H](C)C(C)=O", "class name": "false"}
{"molecule": "C=CC[C@@H]1C=C[C@H](ON=C2c3cc(OC)ccc3O[C@H](c3cccc(OC)c3)[C@H]2O)[C@@H](CO)O1", "class name": "false"}
{"molecule": "C[C@@H]1C=CCC(=O)OC[C@H](C)C(=O)OC[C@H]2O[C@H]1C=C[C@H]2O", "class name": "false"}
{"molecule": "O=C1[C@H]2[C@H]3[C@H](O)[C@H](O)CC(=NOCc4ccccc4)[C@H]3CC[C@H]2C(=O)N1c1cccc(Oc2ccccc2)c1", "class name": "true"}
{"molecule": "COCCCNC(=O)[C@@]1(CCS(=O)(=O)c2ccccc2)N=C(c2ccc(OCCCO)cc2)O[C@H]1c1ccccc1", "class name": "true"}
{"molecule": "O=C1O[C@@H](c2ccccc2)[C@@H](c2ccccc2)N2[C@@H](c3ccc(O)cc3)[C@]3(C(=O)Nc4ccccc43)[C@@H](C(=O)O)[C@H]12", "class name": "false"}
{"molecule": "CO[C@@H]1COC(=O)CCC[C@@H](C)[C@H](OC)COC(=O)[C@H](Cc2ccccc2)NC(=O)CC=C[C@H]1C", "class name": "true"}
{"molecule": "C[C@@H]1C=CCC(=O)OC[C@H](C)C(=O)N2CCC[C@H]2C(=O)OC1", "class name": "true"}
{"molecule": "CC=CC1=C(CO)[C@H](O)[C@H]2O[C@H]2[C@H]1O", "class name": "true"}
{"molecule": "CCc1cc2c(nc1CC)CCN(CCC(C)=NOC[C@@H](O)[C@H]1O[C@@H]3OC(C)(C)O[C@@H]3[C@H]1O)C2", "class name": "false"}
{"molecule": "NCCCCCNC(=O)[C@@H]1C[C@@H]2C(=O)N3CCC[C@H]3C(=O)N2[C@@H]1c1cccc(OCCO)c1", "class name": "true"}
{"molecule": "CN(C)C(=O)[C@@]1(Cc2ccccc2)N=C(c2ccc(OCCCO)cc2)O[C@H]1c1ccccc1CN=[N+]=[N-]", "class name": "true"}

* * *

- experiment summary: basal S. cerevisiae growth modulation, no modifier, primary screen, OD600, strain BY4716, 24 h, basal condition (AID 1173)
- condition context: OD600, 24 h, higher = more signal, called active from +8 up or from −8 down
Mark Not satisfied for z-score values under -0.4, and Satisfied for everything at or above.

{"compound": "C=C(/C(=C/C[C@H](OC(=O)c1ccncc1)c1ccc(OCCO)cc1)c1cnc2ccccc2c1)C(C)C", "class name": "Not satisfied"}
{"compound": "C#CCCCON=C1C[C@@H](O)[C@@H](O)[C@@H]2[C@@H]3C(=O)N([C@@H](C)c4ccccc4)C(=O)[C@@H]3CC[C@H]12", "class name": "Not satisfied"}
{"compound": "C#CCCCON=C1C[C@@H](O)[C@@H](O)[C@@H]2[C@@H]3C(=O)N(c4cccc(Oc5ccccc5)c4)C(=O)[C@@H]3CC[C@@H]12", "class name": "Not satisfied"}
{"compound": "CC(C)=NOCc1ccc(-c2cc(-c3ccccc3)no2)cc1", "class name": "Satisfied"}
{"compound": "C#C[C@@H]1Oc2ccccc2S(=O)(=O)N2CCC[C@H]12", "class name": "Not satisfied"}
{"compound": "COc1ccc(O[C@H]2C=C[C@@H](c3ccccc3)O[C@@H]2COC(=O)N2CCCCC2)cc1", "class name": "Satisfied"}
{"compound": "COC(=O)[C@]1(CO)N=C(c2ccc(OCCCO)cc2)O[C@@H]1c1ccccc1N=[N+]=[N-]", "class name": "Satisfied"}
{"compound": "CC(CCC(=O)OC[C@H]1O[C@H](C#Cc2ccccc2)C=C[C@@H]1Oc1ccc(C)cc1)=NOC[C@@H](O)[C@H]1O[C@@H]2OC(C)(C)O[C@@H]2[C@H]1O", "class name": "Satisfied"}
{"compound": "CC(C)[Si]1(C(C)C)O[C@@H](c2ccccc2)c2cc(C3CC3)nc(-c3ccccc3)c21", "class name": "Satisfied"}
{"compound": "CCOC(=O)CCN1C(=O)[C@H]2[C@H]3[C@H](O)[C@H](O)CC(=O)[C@H]3CC[C@H]2C1=O", "class name": "Satisfied"}
{"compound": "COc1ccccc1CN1C(=O)c2ccccc2[C@@H](C(=O)NCC(F)(F)F)[C@@H]1c1ccc(CO)cc1", "class name": "Satisfied"}
{"compound": "O=C1[C@H]2[C@H]3[C@H](O)[C@H](O)CC(=NOC[C@@H](O)COCc4ccco4)[C@@H]3CC[C@H]2C(=O)N1c1ccc(F)cc1F", "class name": "Satisfied"}
{"compound": "CCOC(=O)[C@H](CC(C)C)NC(=O)CCC1CC(OC(=O)NCc2cccc3ccccc23)CC2(CCCC(COC(=O)NCCc3ccccc3OC)O2)O1 (some centres undefined)", "class name": "Not satisfied"}
{"compound": "COCCCNC(=O)[C@@]1(CCS(=O)(=O)c2ccccc2)N=C(c2ccc(OCCCO)cc2)O[C@H]1c1ccccc1", "class name": "Not satisfied"}
{"compound": "O=C(NN=C1C[C@@H](O)[C@@H](O)[C@@H]2[C@@H]3C(=O)N(c4ccc(F)cc4F)C(=O)[C@@H]3CC[C@@H]12)OCc1ccccc1", "class name": "Satisfied"}
{"compound": "O=C1[C@H]2[C@H]3[C@H](O)[C@H](O)CC(=NOC[C@@H](O)COCc4ccco4)[C@H]3CC[C@H]2C(=O)N1c1cccc(Oc2ccccc2)c1", "class name": "Satisfied"}
{"compound": "CC(CCC(=O)OC[C@H]1O[C@H](C#Cc2ccccc2)C=C[C@@H]1Oc1ccc(C)cc1)=NO[C@@H](C)c1cn([C@H](CO)Cc2ccccc2)nn1", "class name": "Satisfied"}
{"compound": "CC(C)[C@@H](OCc1ccccc1)[C@H](C)C=NOC[C@@H](C)[C@H](OCc1ccccc1)C(C)C", "class name": "Satisfied"}
{"compound": "COc1ccc(O[C@H]2C=C[C@@H](c3ccccc3)O[C@@H]2COC(=O)CCC(C)=NO[C@H](C)c2cn([C@@H]3COC[C@H]3O)nn2)cc1", "class name": "Not satisfied"}
{"compound": "COc1cccc([C@H]2Oc3ccc(OC)cc3C(=NO[C@H](C)c3cn([C@@H]4COC[C@H]4O)nn3)[C@@H]2O)c1", "class name": "Satisfied"}
{"compound": "CCc1cc2c(nc1CC)CCN(CCC(C)=NOC[C@@H](O)COCc1ccco1)C2", "class name": "Not satisfied"}
{"compound": "CC(=O)OC[C@H]1O[C@H](CC=NOC[C@@H](C)[C@H](OCc2ccccc2)C(C)C)C=C[C@@H]1OC(C)=O", "class name": "Satisfied"}
